# experimental details: Cytotoxicity MTS assay (CellTiter 96 Aqueous One Solution) in replicon cells
# Assay type: cell-based
# experimental conditions: EDU; read-out: CC50 (EDU) Range
measure: CC50

I'd like to know its CC50. The compound in question is C#C[C@]1(C)[C@@H]2OP(=O)(OCCC(C)C(=O)OC(C)C)OC[C@H]2O[C@H]1n1ccc(=O)[nH]c1=O (some centres unmarked) [Compound 1A]
> 50 µM

I'd like to know its CC50. The compound in question is C#C[C@@]1(O)[C@@H]2OP(=O)(OCCC(C)C(=O)OC(C)C)OC[C@H]2O[C@H]1n1ccc(=O)[nH]c1=O (some centres unmarked) [Compound 7A]
> 50 µM

====

# System: replicon cells (1b-Con1)
# experimental details: Replicon activity assay (replicon RNA level by real-time RT-PCR, Taqman)
# Type: cell-based
# experimental conditions: Hepatitis C virus, HCV replicon genotype 1b; read-out: EC50 (1b) Range
pEC50: −log10 of the molar value.
measure: pEC50

// map CC(C)OC(=O)[C@H](C)CCOP1(=O)OC[C@H]2O[C@@H](n3cnc4c(N)ncnc43)[C@](C)(F)[C@@H]2O1 (stereo partly drawn) [Compound 88A] to recorded pEC50 (system: replicon cells (1b-Con1))
≥ 6.60

// map C#C[C@]1(C)[C@@H]2O[P@](=O)(OCC(C)(C)CC(=O)OC(C)C)OC[C@H]2O[C@H]1n1ccc(=O)[nH]c1=O [Compound 18B] to recorded pEC50 (system: replicon cells (1b-Con1))
< 5.00

// map CC(C)OC(=O)C(CCOP1(=O)OC[C@H]2O[C@@H](n3ccc(=O)[nH]c3=O)[C@](C)(Cl)[C@@H]2O1)C(=O)OC(C)C (stereo partly drawn) [Compound 38A] to recorded pEC50 (system: replicon cells (1b-Con1))
≥ 6.60

// map CO[C@@H](CO[P@@]1(=O)OC[C@H]2O[C@@H](n3ccc(=O)[nH]c3=O)[C@](C)(N)[C@@H]2O1)CC(=O)OC(C)C [Compound 63A] to recorded pEC50 (system: replicon cells (1b-Con1))
< 5.00

// map CCC(CCO[P@@]1(=O)OC[C@H]2O[C@@H](n3ccc(=O)[nH]c3=O)[C@](C)(N)[C@@H]2O1)C(=O)OC1CCCC1 (stereo partly drawn) [Compound 25A] to recorded pEC50 (system: replicon cells (1b-Con1))
< 5.00

// map C#C[C@]1(C)[C@@H]2O[P@](=O)(OCCC(CO)C(=O)OC(C)C)OC[C@H]2O[C@H]1n1ccc(=O)[nH]c1=O (stereo partly drawn) [Compound 44B] to recorded pEC50 (system: replicon cells (1b-Con1))
< 5.00

====

# Test system: replicon cells (1b-Con1)
# experimental details: Replicon activity assay (replicon RNA level by real-time RT-PCR, Taqman)
# Format: cell-based
# experimental conditions: Hepatitis C virus, HCV replicon genotype 1b; read-out: EC50 (1b) Range
pEC50: −log10 of the molar value.
Assignment: determine reported pEC50 for the given compounds.

I'd like to know its pEC50. The compound in question is CC(CCOP1(=O)OC[C@H]2O[C@@H](n3ccc(=O)[nH]c3=O)[C@](C)(N)[C@@H]2O1)C(=O)OC1CCCC1 (stereo partly drawn) [Compound 14A]
< 5.00

I'd like to know its pEC50. The compound in question is CC(C)OC(=O)C(C)CCOP1(=O)OC[C@H]2O[C@@H](n3ccc(=O)[nH]c3=O)[C@](C)(N)[C@@H]2O1 (single isomer, unassigned) [Compound 10A1]
< 5.00

I'd like to know its pEC50. The compound in question is C#C[C@@]1(O)[C@@H]2OP(=O)(OCC[C@H](C)C(=O)OC3CCCC3)OC[C@H]2O[C@H]1n1ccc(=O)[nH]c1=O (single isomer, unassigned) [Compound 8A1]
6.00 to 6.60

I'd like to know its pEC50. The compound in question is C[C@@]1(N)[C@@H]2O[P@](=O)(OCCC3(C(=O)OC4CCCC4)CC3)OC[C@H]2O[C@H]1n1ccc(=O)[nH]c1=O [Compound 26B]
< 5.00

I'd like to know its pEC50. The compound in question is C#C[C@]1(C)[C@@H]2O[P@](=O)(OCCC(CC)C(=O)OC3CCCC3)OC[C@H]2O[C@H]1n1ccc(=O)[nH]c1=O (stereo partly drawn) [Compound 30B]
< 5.00

I'd like to know its pEC50. The compound in question is CCOC(=O)C1(CCO[P@@]2(=O)OC[C@H]3O[C@@H](n4ccc(=O)[nH]c4=O)[C@](C)(N)[C@@H]3O2)CC1 [Compound 28A]
< 5.00

I'd like to know its pEC50. The compound in question is C#C[C@]1(C)[C@@H]2O[P@@](=O)(OCC(C)(C)CC(=O)OC(C)C)OC[C@H]2O[C@H]1n1ccc(=O)[nH]c1=O [Compound 18A]
< 5.00

I'd like to know its pEC50. The compound in question is CC(C)OC(=O)C(CCO[P@@]1(=O)OC[C@H]2O[C@@H](n3ccc(=O)[nH]c3=O)[C@](C)(N)[C@@H]2O1)C(C)C (stereo partly drawn) [Compound 24A]
< 5.00

I'd like to know its pEC50. The compound in question is CC(=O)O[C@H](C(=O)OC(C)C)[C@@H](CO[P@@]1(=O)OC[C@H]2O[C@@H](n3ccc(=O)[nH]c3=O)[C@](C)(N)[C@@H]2O1)OC(C)=O [Compound 53A]
< 5.00

I'd like to know its pEC50. The compound in question is CC(C)OC(=O)[C@H](C)CCO[P@]1(=O)OC[C@H]2O[C@@H](n3cc(F)c4c(N)ncnc43)[C@](C)(Cl)[C@@H]2O1 [Compound 81B]
< 5.00

I'd like to know its pEC50. The compound in question is CCCCCOC(=O)C(C)CCO[P@@]1(=O)OC[C@H]2O[C@@H](n3ccc(=O)[nH]c3=O)[C@](C)(N)[C@@H]2O1 (stereo partly drawn) [Compound 79A]
5.00 to 6.00

I'd like to know its pEC50. The compound in question is CC(=O)O[C@H](C(=O)OC(C)C)[C@@H](COP1(=O)OC[C@H]2O[C@@H](n3ccc(=O)[nH]c3=O)[C@](C)(N)[C@@H]2O1)OC(C)=O (stereo partly drawn) [Compound 53B]
< 5.00
